# TEST DETAILS: folding stability dG unfold from trypsin proteolysis; higher = more stable
Response key: Yes means folding stability dG unfold >= 1 kcal/mol; No means folding stability dG unfold < 1 kcal/mol.

> print(dat)
                             query.sequence  label
1  SAGGSAGGSAMVVRGEDLTPEALLELLEENPEEVTLETKDHIATVKFNPETGELEITSVDDISAGGSAGGSA [r18_75_TrMRF]    Yes
2  SAGGSAGGSAGGAEEIARKLAEETGKKVTIRIRLPNGEVYEIELDEPLEEIEGAEIVEIESAGGSAGGSAGG [r7_998_TrROS_Hall]     No
3  SAGFVMIKIELENPGNGKERELSIIIPYKSQEDARHIAEEIARELAKNGWKIKKIEVMVMPIPPPPDDPSAG [r5_660_TrROS]    Yes

# evaluate next
Ask: Could you verify whether the entry SMKIKIKVETNPNGEKKIEIEIELKEEDIEFDEGMTLEERKEKLRELAEELAKKLKEEGKEVKIVEIEVESA [r9_751_TrROS_Hall] shows folding stability dG unfold of no less than 1 kcal/mol?
Result: Yes

====

# TEST DETAILS: folding stability dG unfold from trypsin proteolysis; higher = more stable
Recorded folding stability dG unfold for the following sequences
Form entry: value (kcal/mol) — number only.

Known folding stability dG unfold results, listed for orientation:
> print(dat)
                             query.sequence           measured.attribute  unit.of.measurement  measured.value
1  SAGGMKIEVRPLPGDGFVVRLPGDVVALIDPSTGEAVAFFPDGSVARLTITRDPDRPEFTITIEPVGSAGGS [r8_186_TrMRF]  folding stability dG unfold             kcal/mol            1.77
2  SAGEIKIEIKKNKNGKLTIRITVKKKDGEEKEIEIEVPENMTAEELAKELEKKGFEITEIKSIEELLKSAGG [r19_263_TrROS_Hall]  folding stability dG unfold             kcal/mol            3.89
3  SITIMVDNLPPGATAEELASTLFNWIQQFGWEVTPIKITPMPDNWVTVEIEFKNNGKPIFRETIEFRPDASA [r9_953_TrROS]  folding stability dG unfold             kcal/mol             2.4
4  GMPYTVDVVIEEAEDGVIIPIKLSVDGALVAEAVAPVDPVTKKVVIKPGAASKEALDVALEKLKELGIEPGS [r1_455_TrMRF]  folding stability dG unfold             kcal/mol          -0.487
5  SMPEILDVREDPDAPGALTFRVKLPDGEATVVIPYDPETGTFTAVRYYPDGEEVREFDSFEDALEAILEDSA [r9_366_TrMRF]  folding stability dG unfold             kcal/mol            1.45

Ask: Report folding stability dG unfold for SAGGVIMIPADEILDMIEQNPDEPKTIFARPNNRMVMFTLKIDPDKPDNIEIDNVWRYDPNGKGEHLPSAGG [r13_481_TrROS] please.
Result: -0.526

====

Recorded folding stability dG unfold for the following sequences
# TEST DETAILS: folding stability dG unfold (combined trypsin and chymotrypsin); higher = more stable

Ask: Report folding stability dG unfold for SAGGSAEEKAKAIKEELEKKGEVKKVTVTIEPTPENSTKVTVEIEKEPKPKPKEYKYTELPNGKKVILSAGG [r13_957_JUSTAS] please.
Result: < -1 kcal/mol

Ask: Now consider SAGGGMDTPLYRTLPPPPVVEKREVWLSGPSKEEAEKKAKEVEEEFKKEGLEVEVKIIPAEEAEKLSSAGGS [r8_210_JUSTAS] and answer again.
Result: < -1 kcal/mol

Ask: Now consider SAGGSAGGSAGVELPPSLSAEVTPVPGKPGLSRVTITLPDGVVRTIDLERKGDKWIVNPRSAGGSAGGSAGG [r11_177_JUSTAS] and answer again.
Result: < -1 kcal/mol

====

Recorded folding stability dG unfold for the following sequences
# TEST DETAILS: folding stability dG unfold (combined trypsin and chymotrypsin); higher = more stable
Form entry: value (kcal/mol) — number only.

Known folding stability dG unfold results, listed for orientation:
> print(dat)
                             query.sequence  measured.value
1  SAGGSAGGSMLKVRIKIEIDGKTLEVEIEVPPGTTIEELAEALKKLFPGKEVKIVSVEVYELPSAGGSAGGS [r12_427_TrROS_Hall]            4.47
2  SAGGMIKITVTLPDPARVRALFAELGLDVEVTPLPDGSVEIYLPEEYKEKVVEALPEEEVEITPVPPLSAGG [r13_261_JUSTAS]            2.91
3  SAGGSAGGSEVLEVVLPRPDGRLVLLRVDPEGRLALVVFPDGSVRVFEVESPEEAVQRVLDAESAGGSAGGS [r12_866_TrMRF]            2.41
4  SMEFTIEVYDPVTPKVETFPVKAPKEKVIEKIREFQEKGGKVVLSGLPEEKVKEIVEEAGVDVEIVPVEKSA [r9_1207_TrMRF]           0.283

Ask: Report folding stability dG unfold for SAGGSAGGSAGGMVIVKVHLPNGNTLTFVFPGMTLDEIREELASQGGKIKEIEIVPMENSAGGSAGGSAGGS [r10_572_TrROS] please.
Result: 2.28

Ask: Now consider SMVTETSEEVKLPSPVRLLIDKKITTFPESGVVEVPTLVTVIPPSGPDTTLPYRVLYTINDDTYTEKRLLSA [r9_154_JUSTAS] and answer again.
Result: -0.125

====

# TEST DETAILS: folding stability dG unfold (combined trypsin and chymotrypsin); higher = more stable
Recorded folding stability dG unfold for the following sequences
Form entry: value (kJ/mol) — number only.

> print(dat)
                             query.sequence           measured.attribute  measured.value
1  SAGGSAGGSEWYEIRIPGIKGSADDLVEDIQDWFPAPNMKISIEEVEPMGDGLPGMTIKLRVNSAGGSAGGS [r12_348_TrROS]  folding stability dG unfold            1.59

Ask: Report folding stability dG unfold for SAGKMKIISVKIENNTITIEIYKDGKKIKKIEIKKNKKKIIIKIEIEPGEEIKIKIEINGKTYEITIKPSAG [r5_533_TrROS_Hall] please.
Result: 17.2

Ask: Now consider SAGGSAGGSGSVEFETDLKDPNIRKAIEEALKEGKKTAVIPFPDGAEGRIVEVEGDKVRVEISSAGGSAGGS [r12_334_TrMRF] and answer again.
Result: 3.51

Ask: Now consider SAGGSEAIKEALELAKENPGKTVEVEIKNEDGSIYKIKIEVKEGKVVKVEVEKVKKEEVLSEEEKKSAGGSA [r2_263_TrROS_Hall] and answer again.
Result: 8.86

====

# TEST DETAILS: folding stability dG unfold from chymotrypsin proteolysis; higher = more stable
MEASURED ATTRIBUTE: folding stability dG unfold (kcal/mol)
Form entry: value (kcal/mol) — number only.

Known folding stability dG unfold results, listed for orientation:
> print(dat)
                             query.sequence           measured.attribute  measured.value
1  SAGGSAGGSAGKKKKIFLIKIEVVKVKVEKRKKKDGKLEEKVEIEIKIEITEIPLPPELLSAGGSAGGSAGG [r11_24_TrROS_Hall]  folding stability dG unfold            3.02
2  SAGGSAGGSAGGSVIEVKDPNGKKYIIIKTPDPNVYPVTVIPPDGTTTVTPVSDYSKLLSSAGGSAGGSAGG [r7_769_JUSTAS]  folding stability dG unfold          -0.464
3  SAGGSAGGSAGGGKYRLKLRFTFTNAAGGSSELELEVEIEIPPPPLIAPDADGHWYSLTSAGGSAGGSAGGS [r10_330_TrMRF]  folding stability dG unfold            5.31

Attention now turns to another entry.
Ask: Report folding stability dG unfold for SAGGSAGGSAGGVPRLERFTLSPNGLPVRIFVDGDRALVVFEGPDGGLAVATFAVSDIPFSAGGSAGGSAGG [r7_653_TrMRF] please.
Result: 1.62

====

# TEST DETAILS: folding stability dG unfold from trypsin proteolysis; higher = more stable
MEASURED ATTRIBUTE: folding stability dG unfold (kcal/mol)
Form entry: value (kcal/mol) — number only.

Ask: Report folding stability dG unfold for SAGMLDVPDDAEITVLVSLEKVPLPGDSSERVLAGVVKLKVKTLPNGEQVIESAEIKIVSAEELKKAGLSAG [r5_340_TrMRF] please.
Result: 1.34

Ask: Now consider SAGGSAGGIKYRVMVHNPESGRWHRIDDIEIDPPDGRIKIRFPGNGKEITIPPGYPIMISPDMLSAGGSAGG [r6_885_TrROS] and answer again.
Result: 0.662

Ask: Now consider SAGSMSSVKKVKITTTSYDPTNGAKKETSYDVTVTTTTYPATGEITRTIYFTSTGKWKVEHLPPGAPLASAG [r14_587_JUSTAS] and answer again.
Result: 1.48

Ask: Now consider SAGGAVYRNPATGEWYEPGMTEEEREARARAALPPPTVTITVTVTVVFEDNGTTVTATATVTLTVEGSAGGS [r16_387_TrROS_Hall] and answer again.
Result: 2.97

Ask: Now consider SAGGSAKTKVIEIEIDLSPEEIEELAKKLKEEGKVEEVKVEYDEKTGKVKVTVVVRDKNGEWKKLSSAGGSA [r15_177_TrROS_Hall] and answer again.
Result: 0.854

Ask: Now consider SNPISAVVPSPGGRYVLVVEYKDGSVEVYEFEGLSTAEEAKERALALLKESTEGEPREITRVVVLPAPPGSA [r9_1135_TrMRF] and answer again.
Result: 4.3
